Numbers sourced from PubChem BioAssay AID1508601.

Target: Cellular tumor antigen p53 (Homo sapiens)
Experiment: nuclear p53 accumulation, HPV+ cells – imaging, p53-positive nuclei imaging, 24 h, 48 h (AID 1508601)
Conditions: 24/48 h, measured here: p53 positive nuclei at 24 h, Library stock concentration: 10 mM, stronger effect = higher value
The campaign covered roughly 5,700 compounds. About 85 (1%) were called active. This excerpt belongs to a sample that is enriched for actives.
Assign p53-positive nuclei, normalised to each entry below.
Answers are plain numbers, in %.

Some entries whose results are on file:
CS(=O)(=O)c1ccc(C(CC2CCCC2)C(=O)Nc2nccs2)cc1 (stereo unspecified) = -0.0737
C#CCOc1ccc2c(c1)c(-c1ccc(C(C)C)cc1)nc(=O)n2C(C)C = -0.218
CC(C)c1nn(-c2c(Cl)cccc2Cl)c2nc(Cc3ccc(OCCO)cc3)[nH]c(=O)c12 = 4.85
CC(C)CC(NC(=O)C(O)C(N)Cc1ccccc1)C(=O)O (stereo unspecified) = 0.0829
CCCCCc1ccc(C=CC(=O)Nc2ccccc2C(=O)O)cc1 = -0.0182

Could you now consider this next compound?
The compound listed as O=C(C=Cc1cccc(S(=O)(=O)Nc2ccccc2)c1)NO has a reported p53-positive nuclei, normalised of 64.7

* * *

Assay: nuclear p53 accumulation, HPV+ cells – imaging, p53-positive nuclei imaging, 24 h, 48 h (AID 1508601)
Details: 24/48 h, measured here: cell number at 48 h, Library stock concentration: 80 uM
Among all 5,700 compounds or so, about 85 (1%) were called active. The sample as a whole holds a higher share of actives than the screen did.
Assign nuclei count, normalised to each entry below.
Give bare numbers, in %.

Some entries whose results are on file:
COc1ccc(-c2nc(N3CCOCC3)c3sc(CN(C)c4ncc(C(=O)NO)cn4)cc3n2)cn1 = 22.9
CN1CCC(c2c(O)cc(O)c3c(=O)cc(-c4ccccc4Cl)oc23)C1CO (stereo not given) = 106
CN1CCC(c2c(O)cc(O)c3c(=O)cc(-c4ccccc4Cl)oc23)C(O)C1 (stereo not given) = 57.1
CC(=O)NC(CC(C)C)C(=O)NC(CC(C)C)C(=O)NC(C=O)CCCN=C(N)N (stereo not given) = 91.5
Cn1cc(C2=C(c3cn(CCCSC(=N)N)c4ccccc34)C(=O)NC2=O)c2ccccc21 = 114

Hi there! I need nuclei count, normalised for each item below, if you can.
1. CN1CCN(c2ccc(Nc3c4ccccc4nc4ccccc34)cc2)CC1
2. CN1CC[C@H](c2c(O)cc(O)c3c(=O)cc(-c4ccccc4Cl)oc23)C(O)C1 (stereo not given in full)

[109, 113]

* * *

Test: nuclear p53 accumulation, HPV+ cells – imaging, p53-positive nuclei imaging, 24 h, 48 h (AID 1508601)
Conditions: 24/48 h, measured here: cell number at 48 h, Library stock concentration: 3.33 mM
The campaign covered roughly 5,700 compounds. About 85 (1%) were called active. The full list was thinned out, with actives kept by preference.
observed property: nuclei count, normalised (%)
Answers are plain numbers, in %.

Some entries whose results are on file:
COC1=C2CC(C)CC(OC)C(O)C(C)C=C(C)C(OC(N)=O)C(OC)C=CC=C(C)C(=O)NC(=CC1=O)C2=O (stereo not given) = 28.1
Cc1nc(Nc2n[nH]c3c2CN(C(=O)NC(CN(C)C)c2ccccc2)C3(C)C)c2sccc2n1 (stereo not given) = 37.3
CC(C)CC(=O)Nc1n[nH]c2c1CN(C(=O)C1CCN(C)CC1)C2(C)C = 31.6

Hi there! I need nuclei count, normalised for each item below, if you can.
1. COc1cc(C(=O)NS(=O)(=O)c2ccccc2C)ccc1Cc1cn(C)c2ccc(NC(=O)OC3CCCC3)cc12
2. COC(=O)C1C(O)CC[C@H]2CN3CCc4c([nH]c5ccccc45)[C@@H]3C[C@H]12 (stereo not given in full)
3. COc1ccc(Cn2ccc3ccc(C(=O)NO)cc32)cc1
4. COc1cccc2c1C(=O)c1c(O)c3c(c(O)c1C2=O)C[C@@](O)(C(=O)CO)C[C@@H]3OC1CC(N)C(OC2CCCCO2)C(C)O1 (stereo not given in full)

108
106
88.9
38.3
